Recorded The hold time of sensation blocking by entry
System: sciatic nerve of rats
EXPERIMENT_NOTES: First local anesthetic experiment of rats: blocking of sciatic nerve, mechanical withdrawal threshold (VFH, von Frey filaments)
Format: in vivo
APPLIED_CONDITIONS: rat, in vivo
Numbers only; they are read as h.

> print(dat)
                                   molecule                       property.label  units.label  measured.value
1  CCCCCCCCCOC(=O)OCC[N+](CC)(CC)CC(=O)Nc1c(C)cccc1C [Example19product]  The hold time of sensation blocking            h              82
2  CCCCCCCCCCOC(=O)OCC[N+](CC)(CC)CC(=O)Nc1c(C)cccc1C [Example24product]  The hold time of sensation blocking            h              82
3  CCCCCCCOC(=O)OCC[N+](CC)(CC)CC(=O)Nc1c(C)cccc1C [Example15product]  The hold time of sensation blocking            h              81
4  CCCCCCCCCCCCCCCCOC(=O)OCC[N+](CC)(CC)CC(=O)Nc1c(C)cccc1C [Example30product]  The hold time of sensation blocking            h              74

The record that follows has no The hold time of sensation blocking shown yet.
Sample CCCCCCCOC(=O)OCC[N+](CC)(CC)CC(=O)Nc1c(C)cccc1C [Example14product] — what was its The hold time of sensation blocking?
82
